Biological target: various mutants of kinase EGFR (BaF3 cell lines stably transfected with kinase) (Homo sapiens, UniProt P00533, C797S/L858R/T790M)
Construct: expressed in transfected cells; host or cells: BaF3
Sequence (P00533 25-1210 T790M/C797S/L858R): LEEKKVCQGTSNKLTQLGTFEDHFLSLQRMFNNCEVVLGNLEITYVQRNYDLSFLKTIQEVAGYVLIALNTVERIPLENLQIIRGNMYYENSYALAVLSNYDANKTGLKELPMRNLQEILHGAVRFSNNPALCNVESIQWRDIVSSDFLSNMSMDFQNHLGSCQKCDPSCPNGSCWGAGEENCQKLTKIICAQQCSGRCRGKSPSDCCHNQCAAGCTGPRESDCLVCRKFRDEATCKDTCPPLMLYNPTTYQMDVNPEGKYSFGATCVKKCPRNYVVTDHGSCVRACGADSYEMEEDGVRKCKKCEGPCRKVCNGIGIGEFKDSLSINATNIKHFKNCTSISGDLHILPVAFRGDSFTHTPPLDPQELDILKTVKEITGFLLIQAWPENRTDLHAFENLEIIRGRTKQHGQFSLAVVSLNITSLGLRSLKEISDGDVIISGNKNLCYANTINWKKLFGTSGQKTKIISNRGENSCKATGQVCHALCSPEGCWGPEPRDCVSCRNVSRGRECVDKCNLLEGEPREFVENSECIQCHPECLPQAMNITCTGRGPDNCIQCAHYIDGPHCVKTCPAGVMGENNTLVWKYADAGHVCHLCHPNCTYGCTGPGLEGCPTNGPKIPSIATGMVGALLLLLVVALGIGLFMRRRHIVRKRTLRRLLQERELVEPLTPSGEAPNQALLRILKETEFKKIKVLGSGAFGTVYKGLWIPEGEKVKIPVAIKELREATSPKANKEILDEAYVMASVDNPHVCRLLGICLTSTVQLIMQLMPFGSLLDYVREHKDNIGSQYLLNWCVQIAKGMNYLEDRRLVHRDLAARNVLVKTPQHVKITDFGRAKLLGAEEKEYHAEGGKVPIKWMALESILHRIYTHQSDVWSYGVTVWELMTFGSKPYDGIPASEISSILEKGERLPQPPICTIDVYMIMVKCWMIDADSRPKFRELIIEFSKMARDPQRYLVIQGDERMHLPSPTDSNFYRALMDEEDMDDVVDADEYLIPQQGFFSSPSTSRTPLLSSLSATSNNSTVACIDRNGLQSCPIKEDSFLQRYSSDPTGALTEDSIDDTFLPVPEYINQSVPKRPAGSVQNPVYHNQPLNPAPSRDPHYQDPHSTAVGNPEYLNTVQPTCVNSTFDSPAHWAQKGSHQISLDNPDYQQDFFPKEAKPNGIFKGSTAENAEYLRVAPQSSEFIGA
Test: Growth inhibitory activity of compounds on BaF3 cell lines stably transfected with kinase (MTS, 48 h)
Type: cell-based
Conditions: BaF3 cell line stably transfected with EGFR L858R/T790M/C797S, read-out: L858R/T790M/ C797S growth inhibitory activity IC50
pIC50: −log10 of the molar value.
QUANTITY_KIND: pIC50

Example entries and their recorded answers appear below.
structure_notation=CCc1cnc(Nc2ccc(N3CCC(N4CCN(C)CC4)CC3)c(F)c2F)nc1Nc1ccc2nccnc2c1N(C)S(C)(=O)=O quantity_kind=pIC50 experimental_value="6.30 to 7.30"
structure_notation=COc1cc(N2CCC(N3CCN(C)CC3)CC2)c(C)cc1Nc1nccc(Nc2ccc3nccnc3c2N(C)S(C)(=O)=O)n1 quantity_kind=pIC50 experimental_value="6.30 to 7.30"
structure_notation=CCc1cc(Nc2ncc(C(C)C)c(Nc3ccc4nccnc4c3N(C)S(C)(=O)=O)n2)c(OC)cc1N1CCC(N2CCN(C)CC2)CC1 quantity_kind=pIC50 experimental_value="6.30 to 7.30"
structure_notation=CN1CCN(C2CCN(c3ccc(Nc4ncc(Br)c(Nc5ccc6nccnc6c5N(C)S(C)(=O)=O)n4)c(F)c3F)CC2)CC1 quantity_kind=pIC50 experimental_value="≥ 7.30"
structure_notation=CCc1cc(Nc2ncc(Br)c(Nc3ccc4nccnc4c3NS(C)(=O)=O)n2)ccc1N1CCC(N2CCN(C)CC2)CC1 quantity_kind=pIC50 experimental_value="≥ 7.30"

Query (molecule): COc1ccc(N2CCC(O)CC2)cc1Nc1ncc(Br)c(Nc2ccc3nccnc3c2N(C2CC2)S(C)(=O)=O)n1 ; field requested: pIC50 ≥ 7.30
